Molecular target: GORASP2, Q9H8Y8
Test: holdup assay
Set-up: key: below the threshold = too weak to quantify, mostly under pKd 3.1 to 4
Settings: plain residues with an end cap or a label only (N-terminal biotin on a linker: ttds)
readout: pKd

>>> test_result("SRSRRRETAL [HPV33-E6, P06427]")
4.26
>>> test_result("KLVIKTETTV [RASSF6, Q6ZTQ3]")
3.81
>>> test_result("QRPYRRESEI [KCNJ12, Q14500]")
3.74
>>> test_result("NPDALPETLV [ARHGAP6, O43182]")
"below the threshold"
>>> test_result("SGGKRKETLV [NET1, Q7Z628]")
4.03
>>> test_result("KQVVPFSSSV [GDA, Q9Y2T3]")
"below the threshold"
>>> test_result("DLDEEEDTHL [PODXL, O00592]")
3.48
>>> test_result("GRLLGLETNV [ARHGEF26, Q96DR7]")
3.97
>>> test_result("SHSSKGETAV [FZD7, O75084]")
3.66
>>> test_result("PSRDRKETSI [RALBP1, Q15311]")
"below the threshold"
>>> test_result("PFRSRSPSEV [GPR6, P46095]")
3.81
>>> test_result("FVETQHQTQV [FAT3, Q8TDW7]")
"below the threshold"
>>> test_result("GARVSKETPL [MAPK12, P53778]")
"below the threshold"
>>> test_result("SSIDLWETAL [SLC15A5, A6NIM6]")
"below the threshold"
>>> test_result("PPRQRSETQV [HPV82-E6, Q9IR59]")
4.12
